Reference source: PubChem BioAssay AID2060483

Reported viability, T/C values are given for each entry in this list.
test system: K24384-001-R-PDC complex spheroids, viability; assay: Anticancer human tumor K24384-001-R-PDC patient-derived pancreatic adenocarcinoma cell line growth inhibition [GQUAD]; settings: second compound 1 µM; first compound 0.1 µM; hits give low values;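 note: spheroids exposed to compounds for seven days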

Known viability, T/C results, listed for orientation:
compound | viability, T/C
CC(=O)O[C@H]1C(=O)[C@@]2(C)[C@H]([C@H](OC(=O)c3ccccc3)[C@]3(O)C[C@H](OC(=O)[C@H](O)[C@@H](NC(=O)c4ccccc4)c4ccccc4)C(C)=C1C3(C)C)[C@]1(OC(C)=O)CO[C@@H]1C[C@@H]2O + Cc1[nH]c2ccc(F)cc2c1-c1nc2c3cccnc3c3ncccc3c2[nH]1 | 28.2%
Nc1ccn(C2OC(CO)C(O)C2(F)F)c(=O)n1 (stereo not drawn) + CN(C)c1ccc(Nc2c3ccc(NC(=O)CCN4CCCC4)cc3nc3cc(NC(=O)CCN4CCCC4)ccc23)cc1 | 49.9%

Now for another entry.
Query CC(C)n1c(=O)n(C)c2cnc3cc(F)c(-c4ccc(OCCCN5CCCCC5)nc4)cc3c21 + CN(C)c1ccc(Nc2c3ccc(NC(=O)CCN4CCCC4)cc3nc3cc(NC(=O)CCN4CCCC4)ccc23)cc1 yields viability, T/C of 88.7%
